B1: glmS ribozyme (parent)
chain: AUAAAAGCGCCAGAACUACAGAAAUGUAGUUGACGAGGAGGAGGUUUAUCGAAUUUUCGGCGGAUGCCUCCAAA

variants of: B1; test: self-cleavage kobs at 2500 uM GlcN6P; higher = faster cleavage; RNA array; conditions: with glucosamine-6-phosphate
This sample holds only a part of the variants without activity.
propertyMeasured: self-cleavage kobs at 2500 uM GlcN6P (s⁻¹)
API: value field is a number in s⁻¹; no unit string.

[[record]]
variantidentifier = "U46A U54G C70A"
propertymeasured = "self-cleavage kobs at 2500 uM GlcN6P"
unitofmeasure = "s⁻¹"
obsvalue = 0.000289

[[record]]
variantidentifier = "U46A U69C"
propertymeasured = "self-cleavage kobs at 2500 uM GlcN6P"
unitofmeasure = "s⁻¹"
obsvalue = 0.00122

[[record]]
variantidentifier = "A15C C50G A53G G62A C70G"
propertymeasured = "self-cleavage kobs at 2500 uM GlcN6P"
unitofmeasure = "s⁻¹"
obsvalue = 0.000125

[[record]]
variantidentifier = "A14G C16U U45G C67U"
propertymeasured = "self-cleavage kobs at 2500 uM GlcN6P"
unitofmeasure = "s⁻¹"
obsvalue = 0.00988


Lookup: For the variant G41A U54G , what self-cleavage kobs at 2500 uM GlcN6P is on record?
Found: 0.000898

Lookup: Form field: reported self-cleavage kobs at 2500 uM GlcN6P of A12C U55A
Found: 0.0112
